// reported total apoptosis (early Q3 + late Q2) per item
Tested on: HG-3 cells
assay procedure: Annexin V/PI apoptosis assay (FACS)
Type: cell-based, human
measurement parameters: HG-3, 1 µM
# output: bare number, implied unit %

Here's what some known entries look like.
Field: total apoptosis (early Q3 + late Q2) (HG-3 cells). Entry: O=C(C=CC12c3ccccc3C(c3ccccc31)C1C(=O)NC(=O)C12)c1ccc(Br)cc1 (stereo not shown) [Compound 23a]
33

Another: O=C1C2C3c4ccccc4C(C=C[N+](=O)[O-])(c4ccccc43)C2C(=O)N1CCCCCCN1C(=O)C2C3c4ccccc4C(C=C[N+](=O)[O-])(c4ccccc43)C2C1=O (stereo not shown) [Compound 20f]
82

Query O=C(C=CC12c3ccccc3C(c3ccccc31)C1C(=O)N(c3ccc(Cl)cc3)C(=O)C12)c1ccccn1 (stereo not shown) [Compound 25n] next
37

Moving on to another compound below.
API: value(readout=total apoptosis (early Q3 + late Q2), system=HG-3 cells) for record O=C1C2C3c4ccccc4C(C=C[N+](=O)[O-])(c4ccccc43)C2C(=O)N1c1ccccc1 (stereo not shown) [Compound 20a]
82

Data provenance is paper PMC11359702.
